assay context: 298.15 K; 101.33 kPa; Liquid
Field: viscosity. Provide a value for each of the compounds that follow.
Numbers only, in mPa·s.

CCCC[P+](CCCC)(CCCC)CCCC.O=C([O-])[C@@H]1CCCN1 [tetrabutylphosphonium L-prolinate]	1695
CCCC[P+](CCCC)(CCCC)CCCC.N[C@@H](CO)C(=O)[O-] [tetrabutylphosphonium L-serinate]	1143
CCCC[N+](C)(CCCC)CCCC.NCCCC[C@H](N)C(=O)[O-] [N,N-dibutyl-N-methyl-1-butanaminium L-lysinate]	2593
CCCC[N+](C)(CCCC)CCCC.N[C@@H](CO)C(=O)[O-] [N,N-dibutyl-N-methylbutanaminium L-serinate]	10214
CCCC[P+](CCCC)(CCCC)CCCC.NCCS(=O)(=O)[O-] [tetrabutylphosphonium 2-aminoethanesulfonate]	1019

# context switch: different compound, same viscosity
compound CCCC[P+](CCCC)(CCCC)CCCC.C[C@@H](O)[C@H](N)C(=O)[O-] [tetrabutylphosphonium L-threoninate] , viscosity observed: 739

----------
assay context: 313.15 K; 101.33 kPa; Liquid
Numbers after ± are expanded uncertainties.
outcome measure: viscosity
Please answer using a numeric value trailed by its unit.

Past entries and their recorded results:
CCCC[P+](CCCC)(CCCC)CCCC.N[C@@H](CO)C(=O)[O-] [tetrabutylphosphonium L-serinate]	395.4 ± 56 mPa·s
CCCC[P+](CCCC)(CCCC)CCCC.N[C@@H](CS)C(=O)[O-] [tetrabutylphosphonium L-cysteinate]	832.7 ± 160 mPa·s
CCCC[P+](CCCC)(CCCC)CCCC.O=C([O-])[C@@H]1CCCN1 [tetrabutylphosphonium L-prolinate]	483.5 ± 75 mPa·s

compound CCCC[N+](C)(CCCC)CCCC.NCCS(=O)(=O)[O-] [N,N-dibutyl-N-methyl-1-butanaminium 2-aminoethanesulfonate] , viscosity observed: 1600 ± 380 mPa·s

----------
Field: viscosity. Provide a value for each of the molecules that follow.
assay context: 298.15 K; 101.33 kPa; Liquid
Answers are plain numbers, in mPa·s.

Working through the 2 molecules below one at a time, give viscosity for each.
1. CCCC[P+](CCCC)(CCCC)CCCC.NCCCC[C@H](N)C(=O)[O-] [tetrabutylphosphonium L-lysinate]
2. CCCC[N+](C)(CCCC)CCCC.NCCS(=O)(=O)[O-] [N,N-dibutyl-N-methyl-1-butanaminium 2-aminoethanesulfonate]

Completion:
[741, 6674]

Working through the 2 molecules below one at a time, give viscosity for each.
1. CCCC[N+](C)(CCCC)CCCC.C[C@@H](O)[C@H](N)C(=O)[O-] [N,N-dibutyl-N-methyl-1-butanaminium L-threoninate]
2. CCCC[P+](CCCC)(CCCC)CCCC.N[C@@H](CS)C(=O)[O-] [tetrabutylphosphonium L-cysteinate]

Completion:
[8368, 2946]

----------
assay context: Glass; DTA
outcome measure: Glass transition temperature (°C)
Numbers only, in °C.

Past entries and their recorded results:
CCCC[N+](C)(CCCC)CCCC.NCCCC[C@H](N)C(=O)[O-] [N,N-dibutyl-N-methyl-1-butanaminium L-lysinate]	-59.39
CCCC[P+](CCCC)(CCCC)CCCC.N[C@@H](CO)C(=O)[O-] [tetrabutylphosphonium L-serinate]	-59.38
CCCC[P+](CCCC)(CCCC)CCCC.NCCS(=O)(=O)[O-] [tetrabutylphosphonium 2-aminoethanesulfonate]	-58.14
CCCC[N+](C)(CCCC)CCCC.NCCS(=O)(=O)[O-] [N,N-dibutyl-N-methyl-1-butanaminium 2-aminoethanesulfonate]	-54.23
CCCC[N+](C)(CCCC)CCCC.C[C@@H](O)[C@H](N)C(=O)[O-] [N,N-dibutyl-N-methyl-1-butanaminium L-threoninate]	-51.94

Working through the 2 molecules below one at a time, give Glass transition temperature for each.
1. CCCC[P+](CCCC)(CCCC)CCCC.N[C@@H](CS)C(=O)[O-] [tetrabutylphosphonium L-cysteinate]
2. CCCC[P+](CCCC)(CCCC)CCCC.O=C([O-])[C@@H]1CCCN1 [tetrabutylphosphonium L-prolinate]

Completion:
1. -29.68
2. -65.87
